Tgt: T1, human trkC receptor immunoadhesin (trkC extracellular domain fused to immunoglobulin constant domains) (human, UniProt Q16288 32-429)
T1 construct: extracellular domain; not shown: immunoglobulin constant domains
Test: competitive displacement of labeled NT-3 from human trkC immunoadhesin, 96-well plate
Property: IC50mut/IC50NGF12 (ratio)
Your answer should be a plain number; it is taken to be in ratio.

Task item: // returns reported IC50mut/IC50NGF12 for input NGF1234 (ligand) SSSHPIFHRGEFSVCDSESLWVTDKTTAIDIKGKEVMVLGEVNINNSVFKQYFFETKCRDPNPVDSGCRGIDSKHWNSQCKTTQTYVKALTMDGKQAAWRFIRIDTACVCVLSRKAVRRA
Reply: 0.3

Task item: // returns reported IC50mut/IC50NGF12 for input NGFR3 (ligand) SSSHPIFHRGEFSVCDSESVWVTDKTTATDIKGKEVMVLGEVNINNSVFKQYFFETKCRDPNPVDSGCRGIDSKHWNSYCKTTQTFVKALTMDGKQAAWRFIRIDTACVCVLSRKAVRRA
Reply: 2.5

Task item: // returns reported IC50mut/IC50NGF12 for input NGF131 (ligand, also called NGF31) SSSHPIFHRGEFSVCDSVSLWVTDKTTAIDIKGKEVMVLGEVNINNSVFKQYFFETKCRDPNPVDSGCRGIDSKHWNSYCTTTQTYVKALTMDGKQAAWRFIRIDTACVCVLSRKAVRRA
Reply: 0.2

Task item: // returns reported IC50mut/IC50NGF12 for input NGF127 (ligand) SSSHPIFHRGEFSVCDSESLWVTDKTTATDIKGKEVMVLGEVNINNSVFKQYFFETKCRDPNPVDSGCRGIDSKHWNSQCKTTQTFVKALTMDGKQAAWRFIRIDTACVCVLSRKAVRRA
Reply: 2.2

Reference source: patent US6365373
